Experiment: Viability qHTS for spleen associated tyrosine kinase inhibitor (SYKi) naive MV4-11 cells (AID 1963823); note: nearly all actives have a fitted effect of over 40% in size
Conditions: MV4-11 AML viability, CellTiter-Glo luminescence, 72 h; series mostly up to 45 µM
Results filed as inconclusive are left out. The source made the active and inactive calls. Calls come from the whole dose curve; as a rule, active = well fitted cell-killing curve with a large enough effect; inconclusive = small, poorly fitted or top-dose-only effect, or effect the other way; inactive = no such curve, though single readings can be large or run the other way.
Write down one outcome, taken from active, inactive

These recorded examples may help you get a feel for the data.
CC/C=C\C(O)C(O)C1=C(C)C(=O)C2(O1)C(=O)NC(OC)(C(=O)c1ccccc1)C2O (centres undefined)    inactive
Cc1cccc(Nc2cc(Cl)nc(SCC(=O)O)n2)c1C    inactive
CC(C)(C)c1ccc(C(=O)Nc2cn3cc(-n4ccnc4)ccc3n2)cc1    active
O=C(c1c(F)ccc(NS(=O)(=O)N2CC[C@@H](F)C2)c1F)c1c[nH]c2ncc(-c3cnc(C4CC4)nc3)cc12    active
CCN(CCN(C)C)C(=O)CNCc1cc(C(N)=O)ccn1    inactive

GET /call?item= `Cc1cn2c(n1)Cc1ccc(Cl)cc1C(c1ccc(N)cc1)=N2` returns the recorded outcome of this test.
active

Could you check what this test reported for `CC(C)Cn1cnc2c(N)nc3ccccc3c21` ?
inactive

What classification did `CC[C@@H](C)[C@H](NC(=O)[C@H](CC1CCCCC1)NC(=O)c1ccno1)C(=O)N1CCC2(CCc3ccccc32)CC1` end up with in this test?
active

Just curious, what result did CCC(C)/C=C(C)/C=C/C1=CC2=C(Cl)C(=O)C(C)(OC(C)=O)C(=O)C2=CN1C(CCCN=C(N)N)C(=O)O (centres undefined) get here?
inactive

Outcome? CC[C@@H](C)Nc1cc(C(=O)NC2CC3CCC(C2)N3c2ccc(C(=O)C3CC3)cn2)c(C)cc1C(N)=O (some centres undefined)
active

What did this assay record as the result for `CC(C)=C1C[C@@]2(C)C(=CC1=O)CC[C@@H](O)[C@@H]2C` ?
inactive

###

Assay: Viability qHTS for spleen associated tyrosine kinase inhibitor (SYKi) naive MV4-11 cells (AID 1963823); note: nearly all actives have a fitted effect of over 40% in size
Details: MV4-11 AML viability, CellTiter-Glo luminescence, 72 h; series mostly up to 45 µM
Records with an inconclusive call do not appear. Active and inactive are the calls of the source. Calls follow the shape of the dose curve; as a rule, active = well fitted cell-killing curve with a large enough effect; inconclusive = small, poorly fitted or top-dose-only effect, or effect the other way; inactive = no such curve, though single readings can be large or run the other way.
viability (% of control) overview

C=CC(C)(O)CC/C=C(/C)C(=O)OC1C(OC2OCC(OC3OC(CO)C(O)C(O)C3O)C(OC3OCC(O)C(OC4OC(C)C(O)C(O)C4O)C3O)C2O)COC(OC(=O)C23CCC(C)(C)CC2C2=CCC4C5(C)CCC(OC6OC(CO)C(OC7OC(CO)C(O)C(OC8OCC(O)C(O)C8O)C7O)C(O)C6O)C(C)(C)C5CCC4(C)C2(C)CC3O)C1O (configuration not stated)    68.9% [at 4.97 µM] (inactive)
COc1cc(O[C@@H]2O[C@H](CO)[C@@H](O)[C@H](O)[C@H]2O)c(CCC(=O)OC[C@H]2O[C@@H](Oc3cc(OC)c(C4OC(=O)C(C)(O)C4O)cc3CCC(=O)O)[C@H](O)[C@@H](O)[C@@H]2O)cc1C1OC(=O)C(C)(O)C1O (some centres not stated)    77% [at 9.25 µM] (inactive)

Assign viability (% of control) to the following record: CC1(C)CCC2(C(=O)OC3OCC(O)C(O)C3O)CCC3(C)C(=CCC4C5(C)CC(O)C(OC6OC(COC7OCC(O)C(O)C7O)C(O)C(O)C6O)C(C)(C)C5CCC43C)C2C1 (configuration not stated)
68.8% [at 9.25 µM] (inactive)

Write down viability (% of control) measured for item CC1(C)CC[C@]2(C(=O)O)[C@H](O)C[C@]3(C)C(=CCC4[C@@]5(C)CC[C@H](O[C@@H]6O[C@H](CO[C@@H]7OC[C@H](O)[C@H](O)[C@H]7O[C@@H]7OC[C@@H](O)[C@H](O)[C@H]7O)[C@@H](O)[C@H](O)[C@H]6O[C@@H]6O[C@H](CO)[C@@H](O)[C@H](O)[C@H]6O)C(C)(C)C5CC[C@]43C)[C@@H]2C1 (some centres not stated)
92.2% [at 9.25 µM] (inactive)

Tell us which viability (% of control) value is on record for CC(CCC1(O)OC2CC3C4CCC5CC(O[C@@H]6O[C@H](CO)[C@@H](O)[C@H](O)[C@H]6O[C@@H]6OC[C@@H](O)[C@H](O)[C@H]6O)C(O)CC5(C)C4CCC3(C)C2C1C)CO[C@@H]1O[C@H](CO)[C@@H](O)[C@H](O)[C@H]1O (some centres not stated)
83.1% [at 9.25 µM] (inactive)

Tell me measured viability (% of control) for C[C@@H]1O[C@@H](O[C@H]2[C@H](O)[C@@H](O)[C@H](OC(=O)[C@]34CCC(C)(C)C[C@H]3C3=CCC5[C@@]6(C)CC[C@H](O[C@@H]7O[C@H](C(=O)O)[C@@H](O)[C@H](O)[C@H]7O)C(C)(C)C6CC[C@@]5(C)[C@]3(C)CC4)O[C@@H]2CO)[C@H](O)[C@H](O)[C@H]1O (some centres not stated) please.
72.1% [at 9.25 µM] (inactive)

Look up and state reported viability (% of control) for C[C@@H]1O[C@@H](O[C@H]2[C@H](OC(=O)C34CCC(C)(C)CC3C3=CCC5C6(C)CC(O)C(O[C@@H]7O[C@H](CO)[C@@H](O)[C@H](O)[C@H]7O)C(C)(C(=O)O)C6CCC5(C)C3(CO)CC4)O[C@H](C)[C@H](O)[C@@H]2O)[C@H](O)[C@H](O)[C@H]1O[C@@H]1OC[C@@H](O)[C@H](O)[C@H]1O (some centres not stated)
87% [at 9.25 µM] (inactive)

###

Assay: Viability qHTS for spleen associated tyrosine kinase inhibitor (SYKi) drug resistant MV4-11 cells (AID 1963824); note: nearly all actives have a fitted effect of over 35% in size; note: potency is the fitted concentration of half-maximal effect
Conditions: SYKi-resistant MV4-11 viability, CellTiter-Glo, 72 h; series mostly up to 45 µM
Records with an inconclusive call do not appear. The source made the active and inactive calls. Calls come from the whole dose curve; as a rule, active = well fitted cell-killing curve with a large enough effect; inconclusive = small, poorly fitted or top-dose-only effect, or effect the other way; inactive = no such curve, though single readings can be large or run the other way.
measured-metric: Potency

The cases that follow already have their Potency on record.
C=C1C[C@@]2(O)O[C@@]3(C[C@H]2C(C)C)[C@@H](C)CC[C@@H]13    inactive
C/C=C1\[C@H](O[C@@H]2O[C@H](CO)[C@@H](O)[C@H](O)[C@H]2O)OC=C(C(=O)OC)[C@H]1CC(=O)OC[C@H]1O[C@@H](OCCc2ccc(O)cc2)[C@H](O)[C@@H](O)[C@@H]1O    inactive
N#Cc1c(NC(=O)c2cccc3ccccc23)sc2c1CCCC2    0.186 µM (active)
C[C@H]1CNCCCN1S(=O)(=O)c1cccc2cncc(F)c12    inactive
OCC1=CC[C@@H]2C=CO[C@@H](O[C@@H]3O[C@H](CO)[C@@H](O)[C@H](O)[C@H]3O)[C@H]12    inactive

Kindly indicate its recorded Potency. Item: `Cc1c[nH]c2nccc(Oc3c(F)cc(Nc4cc(Cl)nc(N)n4)cc3F)c12`
0.731 µM (active)

###

Experiment: Quantitative highthroughput screen to assess conditional lethalithy of SEM cells grown in RPMI1640 with unreated serum (RPMI+s) (AID 1963883); note: potency is the fitted concentration of half-maximal effect; nearly all actives have a fitted effect of over 35% in size
Settings: SEM B-ALL cells, CellTiter-Glo viability, 48 h; series mostly up to 45.8 µM
Results filed as inconclusive are left out. Calls of active or inactive are those of the source. Calls come from the whole dose curve; as a rule, active = well fitted cell-killing curve with a large enough effect; inconclusive = small, poorly fitted or top-dose-only effect, or effect the other way; inactive = no such curve, though single readings can be large or run the other way.
# key: entry, value: Potency

COc1cc(N2CCN(C)CC2)ccc1Nc1nc(N)c(C(=O)c2c(Cl)cccc2Cl)s1    20.9 µM (active)
CN(C)CC=CC(=O)Nc1cc2c(Nc3ccc(F)c(Cl)c3)ncnc2cc1O[C@H]1CCOC1    0.743 µM (active)

Given `Nc1ncnc2c1nc(Cl)n2[C@@H]1O[C@H](CO)[C@@H](O)[C@@H]1O` , respond with its Potency.
14.8 µM (active)

Determine from records and report Potency for `Cc1nc(Nc2n[nH]c3c2CN(C(=O)N[C@H](CN(C)C)c2ccccc2)C3(C)C)c2sccc2n1`
0.332 µM (active)

Supply measured Potency of `COc1cc(F)c(F)c(Nc2ccc(I)cc2F)c1NS(=O)(=O)C1(C[C@H](O)CO)CC1` in your reply.
20.9 µM (active)

###

Assay: Quantitative highthroughput screen to assess conditional lethalithy of NOMO1 cells grown in RPMI1640 with untreated serum (RPMI+s) (AID 1963876); note: nearly all actives have a fitted effect of over 35% in size; note: potency is the fitted concentration of half-maximal effect;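 for viability: 100% = DMSO wells and 0% = empty wells without cells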
Details: NOMO1 AML cells in RPMI+serum, CellTiter-Glo viability, 48 h; series mostly up to 45.8 µM
Records with an inconclusive call do not appear. The source made the active and inactive calls. Calls follow the shape of the dose curve; as a rule, active = well fitted cell-killing curve with a large enough effect; inconclusive = small, poorly fitted or top-dose-only effect; inactive = flat fitted curve, though single readings scatter.
measured-metric: Potency

Observe how each entry below is paired with its result.
CCOC(=O)C(C)Oc1cccc2c(=O)n(CC(=O)Nc3ccc4c(c3)OCCO4)ccc12 (stereo not given)    inactive
COc1cc2ncnc(Nc3ccc(F)c(Cl)c3)c2cc1NC(=O)C=CCN1CCCCC1    inactive
CCC(C)(Oc1ccc(C2(c3ccc(OC(C)(CC)C(=O)O)cc3)CCCCC2)cc1)C(=O)O (stereo not given)    inactive
CC(C)(C)[C@H](NC(=O)c1ccc(N)c(Cl)c1)C(=O)N1CCC[C@@H]1C(=O)N[C@H](C#N)CC(=O)O    105 nM (active)

Kindly review the next molecule as well.
Please give measured Potency of the following entry: `Cc1nc2n(c(=O)c1CCN1CCC(c3noc4cc(F)ccc34)CC1)CCCC2`
inactive
